- protocolDescription: Oral bioavailability in 12 hrs fasting Sprague-Dawley rat at 10 mg/kg
- Format: ADME, organism-based
- condition: in vivo
testReadout: bioavailability
Write the quantity with the unit trailing the number.

Please look up its bioavailability: COc1ccc2c(c1OC)C(C)(C)[N+]1=C(C2)c2cc3c(cc2CC1)OCO3.[Cl-] [8,8-dimethyldihydroberberine]
10%

---

- protocolDescription: Oral bioavailability in 12 hrs fasting Sprague-Dawley rat at 20 mg/kg
- Type: ADME, organism-based
- condition: in vivo
testReadout: bioavailability (%)
Numbers only, in %.

Please look up its bioavailability: COc1ccc2c(c1OC)CN1CCc3cc4c(cc3C1=C2)OCO4 [DIHYDROBERBERINE]
2.65
